Test system: SK-OV-3 ovarian
experiment.summary: NCI-60 one-dose screen, 48 h (100 = growth as untreated, 0 = no growth, -100 = all killed)
stated.conditions: 10 µM
About 83,000 compounds went through this panel and 20% of them were active in at least one assay; those are over-represented in the sample as a whole.
As shown below, each of these compounds has a reported growth value.
Write the answer as a number in %, unit excluded.

Use the examples below as a reference point.
[
  {
    "compound": "O=C(Nc1nc2ccc(F)cc2s1)c1cc(-c2ccc(F)cc2)n2nc(-c3ccccc3)cc2n1",
    "growth (%)": 86.4
  },
  {
    "compound": "Cc1cc(Cc2cc(C)c(O)c(C)c2)cc(C)c1O",
    "growth (%)": 53
  },
  {
    "compound": "COc1ccc2c(c1)C(=O)c1c-2c(OCCN(C)C)nc2cc(OC)c(OC)cc12",
    "growth (%)": 74.2
  },
  {
    "compound": "COc1ccc2nc3cc(Cl)ccc3c(NCCNCC(C)O)c2c1 (stereo not given)",
    "growth (%)": 37.5
  }
]

Given `N#CCCN(NC(=O)OCc1ccccc1)C(=O)OCc1ccccc1` , state its recorded growth.
122

Given `Cc1ccc(C(=O)Nc2cccc(F)c2)cc1NC(=O)C1(c2ncnc3[nH]ccc23)CC1` , state its recorded growth.
91.1

Given `COc1cc(/C=C2\Oc3cc(OCC(=O)c4ccccc4)ccc3C2=O)cc(OC)c1OC` , state its recorded growth.
120

Given `COc1ccc(OC)c(/C=C/c2nnc(Nc3ccc(Cl)cc3)o2)c1` , state its recorded growth.
32.9

Given `Cc1ccc(N=Nc2c(N)nc(N)[nH]c2=O)cc1C` , state its recorded growth.
99.2

Given `COc1cc(Cl)cc(-c2nn(-c3cccc(NC(=O)Nc4ccc(Cl)c(Cl)c4)c3)cc2-c2ccncc2)c1` , state its recorded growth.
14.2
